This listing pairs compounds with measured half-life at 1 μM.
- procedure.details: Hepatocyte stability, 0.01% final DMSO, 1 μM substrate (t1/2^b)
- Type: in vitro ADME
- condition.set: human, hepatocytes, TA with 0.01% final DMSO, 1 μM substrate, samples at 0, 1, 3, 6 hours; read-out: human hepatocyte t½^b

| compound | half-life at 1 μM |
| --- | --- |
| Cc1ccc(C(F)F)cc1-n1c(C(C)Nc2nc(N)nc(N)c2C#N)nc2cccc(Cl)c2c1=O (single isomer, unassigned) [Compound 188a-2] | 1 to 3 h |
| CCC(Nc1nc(N)nc(N)c1C#N)c1nc2c(F)cccc2c(=O)n1-c1cc(F)cc(F)c1 (single isomer, unassigned) [Compound 17a] | 6 to 10 h |
| CC(Nc1nc(N)nc(N)c1C#N)c1nc2cccc(F)c2c(=O)n1-c1cc(F)cc(C(F)F)c1 (single isomer, unassigned) [Compound 54a] | 3 to 6 h |
| CC(Nc1nc(N)nc(N)c1C#N)c1nc2cccc(Cl)c2c(=O)n1-c1c(F)cccc1F (single isomer, unassigned) [Compound 145a] | 6 to 10 h |
| CC(Nc1nc(N)nc(N)c1C#N)c1nc2cccc(C(F)F)c2c(=O)n1-c1cccc(C#N)c1 (single isomer, unassigned) [Compound 63a] | > 10 h |
| CC(Nc1nc(N)nc(N)c1C#N)c1nc2c(F)ccc(Cl)c2c(=O)n1-c1cccc(C#N)c1 (single isomer, unassigned) [Compound 181a] | 6 to 10 h |
| CC(Nc1nc(N)nc(N)c1C#N)c1nc2ccccc2c(=O)n1-c1cc(F)cc(F)c1 (single isomer, unassigned) [Compound 28a] | > 10 h |
| CC(Nc1nc(N)nc(N)c1C#N)c1nc2cccc(Cl)c2c(=O)n1-c1cccc(F)c1 (single isomer, unassigned) [Compound 108a] | 3 to 6 h |
| CC(Nc1nc(N)nc(N)c1C#N)c1nc2cccc(F)c2c(=O)n1-c1cc(F)cc(F)c1 (single isomer, unassigned) [Compound 10a] | 3 to 6 h |
| CC(Nc1nc(N)nc(N)c1C#N)c1nc2ccc(F)c(Cl)c2c(=O)n1-c1cccc(C#N)c1 (single isomer, unassigned) [Compound 176a] | > 10 h |
| CC(Nc1nc(N)nc(N)c1C#N)c1nc2c(C#N)cc(F)cc2c(=O)n1-c1ccccc1 (single isomer, unassigned) [Compound 155a] | > 10 h |
| CCC(Nc1nc(N)nc(N)c1C#N)c1nc2ccc(F)cc2c(=O)n1-c1cccc(F)c1 (single isomer, unassigned) [Compound 178a] | > 10 h |

====

This listing pairs molecules with measured half-life at 1 μM.
- procedure.details: Hepatocyte stability, 0.01% final DMSO, 1 μM substrate (t1/2^b)
- Type: in vitro ADME
- condition.set: human, hepatocytes, TA with 0.01% final DMSO; human hepatocytes; read-out: t1/2^b

| molecule | half-life at 1 μM |
| --- | --- |
| C[C@H](Nc1ncnc2[nH]cnc12)c1nc2cccc(Cl)c2c(=O)n1-c1ccccc1 [X, reference compound] | < 2 h |
| C[C@H](Nc1ncnc(N)c1C#N)c1nc2cccc(Cl)c2c(=O)n1-c1ccccc1 [Y, reference compound] | < 2 h |
| C[C@H](Nc1ncnc(N)c1C#N)c1nc2cccc(F)c2c(=O)n1-c1cccc(F)c1 [Compound V, reference compound] | < 1 h |
| CC(Nc1nc(N)nc(N)c1C#N)c1nc2cccc(F)c2c(=O)n1-c1cccc(F)c1 (single isomer, unassigned) [Compound 182a] | > 20 h |

====

This listing pairs compounds with measured pIC50.
- system.tested: PI3Kδ (Homo sapiens, UniProt O00329)
- Construct: made in house
- Sequence (O00329 whole entry): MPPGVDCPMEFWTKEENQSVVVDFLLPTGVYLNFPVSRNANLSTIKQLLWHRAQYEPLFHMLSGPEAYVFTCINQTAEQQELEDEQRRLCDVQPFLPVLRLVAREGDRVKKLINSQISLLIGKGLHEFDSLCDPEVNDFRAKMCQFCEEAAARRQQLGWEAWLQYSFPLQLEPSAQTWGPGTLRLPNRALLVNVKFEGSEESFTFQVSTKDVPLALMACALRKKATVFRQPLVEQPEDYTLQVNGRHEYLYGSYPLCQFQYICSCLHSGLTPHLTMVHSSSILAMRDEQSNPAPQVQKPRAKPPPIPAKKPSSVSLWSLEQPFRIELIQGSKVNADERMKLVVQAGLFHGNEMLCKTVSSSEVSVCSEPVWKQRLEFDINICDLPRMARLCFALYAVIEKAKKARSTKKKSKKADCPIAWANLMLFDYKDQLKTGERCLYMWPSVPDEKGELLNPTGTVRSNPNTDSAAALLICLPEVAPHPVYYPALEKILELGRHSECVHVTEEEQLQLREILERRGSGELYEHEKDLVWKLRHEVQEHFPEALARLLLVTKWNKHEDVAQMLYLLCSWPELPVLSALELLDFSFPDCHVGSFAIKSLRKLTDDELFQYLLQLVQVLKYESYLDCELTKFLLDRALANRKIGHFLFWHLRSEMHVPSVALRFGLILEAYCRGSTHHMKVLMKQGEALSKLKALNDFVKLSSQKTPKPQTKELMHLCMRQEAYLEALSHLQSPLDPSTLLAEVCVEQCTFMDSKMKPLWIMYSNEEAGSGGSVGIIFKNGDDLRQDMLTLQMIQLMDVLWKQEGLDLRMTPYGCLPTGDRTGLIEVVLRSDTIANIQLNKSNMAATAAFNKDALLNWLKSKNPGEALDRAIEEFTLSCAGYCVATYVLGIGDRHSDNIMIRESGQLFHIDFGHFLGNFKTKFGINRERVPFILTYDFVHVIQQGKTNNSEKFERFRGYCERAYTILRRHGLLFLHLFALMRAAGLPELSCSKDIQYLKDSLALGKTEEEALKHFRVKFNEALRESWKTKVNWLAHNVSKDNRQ
- Sequence (P27986 whole entry partner): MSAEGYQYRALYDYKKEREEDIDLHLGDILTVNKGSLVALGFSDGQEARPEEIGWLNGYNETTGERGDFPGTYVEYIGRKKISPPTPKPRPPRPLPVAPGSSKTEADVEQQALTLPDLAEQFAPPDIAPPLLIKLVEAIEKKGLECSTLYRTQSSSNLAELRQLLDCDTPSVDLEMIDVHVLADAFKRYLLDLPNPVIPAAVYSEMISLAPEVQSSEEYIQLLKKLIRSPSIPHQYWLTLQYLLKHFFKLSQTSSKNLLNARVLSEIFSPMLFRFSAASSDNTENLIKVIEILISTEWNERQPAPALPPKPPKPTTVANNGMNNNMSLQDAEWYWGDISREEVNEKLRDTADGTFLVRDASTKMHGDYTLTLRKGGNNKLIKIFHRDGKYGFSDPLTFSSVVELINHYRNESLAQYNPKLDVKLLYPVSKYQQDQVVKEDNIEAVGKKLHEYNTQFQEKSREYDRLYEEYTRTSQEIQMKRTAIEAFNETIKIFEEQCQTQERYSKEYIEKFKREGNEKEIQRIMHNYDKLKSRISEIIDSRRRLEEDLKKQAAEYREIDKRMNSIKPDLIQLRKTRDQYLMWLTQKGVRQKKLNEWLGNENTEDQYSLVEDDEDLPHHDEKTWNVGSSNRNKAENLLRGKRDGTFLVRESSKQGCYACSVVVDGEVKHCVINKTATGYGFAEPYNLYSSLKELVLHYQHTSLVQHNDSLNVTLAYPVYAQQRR
- procedure.details: Enzymatic activity of PI3K isoforms, TR-FRET assay (PIP3 formation)
- Type: biochemical
- condition.set: PI3Kδ; TR-FRET, 2×Km ATP, 10 μM PIP2; read-out: IC50
pIC50: −log10 of the molar value.
test.readout: pIC50

| compound | system.tested | test.readout | value.measured |
| --- | --- | --- | --- |
| CCC(Nc1nc(N)nc(N)c1C#N)c1nc2c(F)cc(F)cc2c(=O)n1-c1cc(F)cc(F)c1 (single isomer, unassigned) [Compound 69a] | PI3Kδ (Homo sapiens, UniProt O00329) | pIC50 | 7.30 to 8.00 |
| CC(Nc1nc(N)nc(N)c1C#N)c1nc2c(Cl)cccc2c(=O)n1-c1ccccc1 (single isomer, unassigned) [Compound 22a] | PI3Kδ (Homo sapiens, UniProt O00329) | pIC50 | 8.00 to 9.00 |
| Cc1ccc(C)c(-n2c(C(C)Nc3nc(N)nc(N)c3C#N)nc3cccc(Cl)c3c2=O)c1 (single isomer, unassigned) [Compound 191a-1] | PI3Kδ (Homo sapiens, UniProt O00329) | pIC50 | 8.00 to 9.00 |
| CC(Nc1nc(N)nc(N)c1C#N)c1nc2cccc(S(C)(=O)=O)c2c(=O)n1-c1ccccc1F (single isomer, unassigned) [Compound 142a-1] | PI3Kδ (Homo sapiens, UniProt O00329) | pIC50 | 8.00 to 9.00 |
| COc1cc(F)cc(-n2c(C(C)Nc3nc(N)nc(N)c3C#N)nc3cccc(Cl)c3c2=O)c1C (single isomer, unassigned) [Compound 110a-1] | PI3Kδ (Homo sapiens, UniProt O00329) | pIC50 | < 7.30 |
| Cc1c(F)cc(F)cc1-n1c(C(C)Nc2nc(N)nc(N)c2C#N)nc2cccc(Cl)c2c1=O (single isomer, unassigned) [Compound 200a-2] | PI3Kδ (Homo sapiens, UniProt O00329) | pIC50 | 7.30 to 8.00 |

====

- Tested on: basophils
- procedure.details: Basophil activation in human whole blood (Flow2 CAST kit, CD63 positive cells)
- Type: cell-based
- condition.set: Homo sapiens, basophil activation
This listing pairs molecules with measured EC50.

| molecule | EC50 |
| --- | --- |
| C[C@H](Nc1ncnc(N)c1C#N)c1nc2cccc(Cl)c2c(=O)n1-c1cc(F)cc(F)c1 [Z, reference compound] | > 10 nM |
| CC(Nc1nc(N)nc(N)c1C#N)c1nc2cccc(Cl)c2c(=O)n1-c1ccccc1 (single isomer, unassigned) [Compound 49a] | < 0.5 nM |
| C[C@H](Nc1ncnc(N)c1C#N)c1nc2cccc(Cl)c2c(=O)n1-c1ccccc1 [Y, reference compound] | > 15 nM |

====

- System: basophils
- procedure.details: Basophil activation in human whole blood (Flow2 CAST kit, CD63 positive cells)
- Format: cell-based
- condition.set: basophils activated with anti-FcεRI mAb or fMLP, geometric mean
pEC50: −log10 of the molar value.

| molecule | pEC50 |
| --- | --- |
| Cc1cccc(-n2c(C(C)Nc3nc(N)nc(N)c3C#N)nc3cccc(Cl)c3c2=O)c1C (single isomer, unassigned) [Compound 202a-2] | < 7.30 |
| Cc1c(C(F)F)cccc1-n1c(C(C)Nc2nc(N)nc(N)c2C#N)nc2cccc(Cl)c2c1=O (single isomer, unassigned) [Compound 189a-1] | < 7.30 |
| CC(Nc1nc(N)nc(N)c1C#N)c1nc2cccc(S(C)(=O)=O)c2c(=O)n1-c1ccccc1F (single isomer, unassigned) [Compound 142a-2] | 7.30 to 8.00 |
| COc1ccc(C)c(-n2c(C(C)Nc3nc(N)nc(N)c3C#N)nc3cccc(Cl)c3c2=O)c1 (single isomer, unassigned) [Compound 187a-2] | 8.00 to 9.00 |
| COc1ccc(C)c(-n2c(C(C)Nc3nc(N)nc(N)c3C#N)nc3cccc(Cl)c3c2=O)c1 (single isomer, unassigned) [Compound 187a-1] | 7.30 to 8.00 |
| Cc1c(F)cc(F)cc1-n1c(C(C)Nc2nc(N)nc(N)c2C#N)nc2cccc(Cl)c2c1=O (single isomer, unassigned) [Compound 200a-1] | 7.30 to 8.00 |
| COc1cccc(-n2c(C(C)Nc3nc(N)nc(N)c3C#N)nc3cccc(Cl)c3c2=O)c1 (single isomer, unassigned) [Compound 206a] | > 9.00 |
| Cc1c(F)cccc1-n1c(C(C)Nc2nc(N)nc(N)c2C#N)nc2cccc(Cl)c2c1=O (single isomer, unassigned) [Compound 199a-2] | < 7.30 |
| COc1cc(F)cc(-n2c(C(C)Nc3nc(N)nc(N)c3C#N)nc3cccc(Cl)c3c2=O)c1 (single isomer, unassigned) [Compound 205a] | > 9.00 |
| Cc1c(F)cccc1-n1c(C(C)Nc2nc(N)nc(N)c2C#N)nc2cccc(Cl)c2c1=O (single isomer, unassigned) [Compound 199a-1] | > 9.00 |
| Cc1ccc(C)c(-n2c(C(C)Nc3nc(N)nc(N)c3C#N)nc3cccc(Cl)c3c2=O)c1 (single isomer, unassigned) [Compound 191a-1] | 7.30 to 8.00 |
| Cc1c(C(F)F)cccc1-n1c(C(C)Nc2nc(N)nc(N)c2C#N)nc2cccc(Cl)c2c1=O (single isomer, unassigned) [Compound 189a-2] | 8.00 to 9.00 |
